# key: entry, value: Cannabinoid content of NTI164, Day 7
# RUN DESCRIPTION: Stability of NTI164 oil formulation at room temperature (UPLC)
# ASSAY CONTEXT: NTI164 oil, room temperature, Day 7
Report as a plain number; the unit mg/mL is understood.

Field: example entries. Status: answers known.
# COMPOUND, READOUT NUMBER
records = [
    ("C=C(C)[C@@H]1CCC(C)=C[C@H]1c1c(O)cc(CCCCC)c(C(=O)O)c1O [Cannabidiol acid (CBD-A), Cannabidiol acid]", 48.62),
    ("CCCCCc1cc(O)c(C/C=C(\\C)CCC=C(C)C)c(O)c1 [Cannabigerol (CBG), Cannabigerol]", 5.14),
    ("CCCCCc1cc(O)c(C/C=C(\\C)CCC=C(C)C)c(O)c1C(=O)O [Cannabigerol Acid(CBG-A), Cannabigerolic acid]", 1.20),
]

Now for a further compound.
Q) Look up Cannabinoid content of NTI164, Day 7 for this compound: CCCCCc1cc(O)c2c(c1)OC(C)(C)c1ccc(C)cc1-2 [Cannabinol (CBN), Cannabinol]
A) 2.48

The measured values listed here are drawn from patent US20260335341A1.
